# Protocol Text: NCI Yeast Anticancer Drug Screen. Data for the mlh1 rad18 strain (AID 175)
# Condition Details: S. cerevisiae mlh1 rad18 strain growth inhibition; at 50.0 µM; active compounds read high
Compounds without any hit were thinned out: in the full panel of roughly 79,000, 15% have a hit.
Endpoint Name: growth inhibition (%)
One number for each entry, in %.

The cases that follow already have their growth inhibition on record.
Compound	Endpoint Name	Test Result
Clc1ccc(Cc2nc3ccccc3s2)c(Cl)c1	growth inhibition	92.5
O=C(CNc1ccc([N+](=O)[O-])cc1)Nn1c(-c2ccccc2)nc2ccccc2c1=O	growth inhibition	85.4

# input for lookup
Query :: Answer with reported growth inhibition of CS(=O)(=O)OCC(COS(C)(=O)=O)C(c1ccccc1)c1ccccc1Br (stereo not drawn)
Result :: 56.2
